System: A498 renal
Assay: NCI tumour cell line growth inhibition, 48 h
Give measured GI50 for each item. Keep answers brief.

Please review the entries below; each comes with its answer.
1) COC1=CC(c2ccc[nH]2)=N/C1=C\c1[nH]c(C)c(C(=O)CCCCC(=O)NCc2ccccc2)c1C	15.5 µM
2) C[C@@]12C(=O)OC(=O)[C@]1(C)[C@H]1CC[C@@H]2O1	1.47 µM
3) FC(F)(F)c1ccc(-c2cnc(Cl)nc2NC2CCCCCC2)cc1	> 100 µM

Now consider the entry below.
What GI50 value was documented for this compound, C=Cc1ccccc1 (tested in a mixture with another compound) ?
> 75 µg/mL
